meta.source: patent US20120270929A1

measurement_notes: Plasma cholesterol and triglycerides in C57BL/6 mice (Olympus AU400e)
Type: in vivo, mouse
experimental_conditions: Week 3, 50 mg/kg/week
Oligonucleotides are written 5' to 3', each unit as a sugar letter and its base; * is a phosphorothioate linkage, no mark a phosphodiester; rarer units and linkages stand in square brackets, end groups in braces. Plain capitals give the bases only. e = 2'-O-(2-methoxyethyl) (MOE); [5mC] = 5-methylcytosine; d = 2'-deoxy (DNA)
measured_endpoint: total cholesterol levels
The answer should read as a number with its unit following.

Example sequences with recorded total cholesterol levels:
biopolymer_sequence	total cholesterol levels
CGGATGATTCTTGCTGGTAA (antisense e[5mC]*eG*eG*eA*eT*dG*dA*dT*dT*d[5mC]*dT*dT*dG*d[5mC]*dT*eG*eG*eT*eA*eA) [ISIS 447114]	70 mg/dL
GCCACCAGTGCCTGCTGAGC (antisense eG*e[5mC]*e[5mC]*eA*e[5mC]*d[5mC]*dA*dG*dT*dG*d[5mC]*d[5mC]*dT*dG*d[5mC]*eT*eG*eA*eG*e[5mC]) [ISIS 447143]	81 mg/dL
TATTTCTATAGCTCATGACA (antisense eT*eA*eT*eT*eT*d[5mC]*dT*dA*dT*dA*dG*d[5mC]*dT*d[5mC]*dA*eT*eG*eA*e[5mC]*eA) [ISIS 447144]	81 mg/dL

QUERY: For the sequence GCAGCTCGATTCGGGCATGA (antisense eG*e[5mC]*eA*eG*e[5mC]*dT*d[5mC]*dG*dA*dT*dT*d[5mC]*dG*dG*dG*e[5mC]*eA*eT*eG*eA) [ISIS 447118] , what total cholesterol levels is on record?
RESULT: 77 mg/dL

====

System: SRB1 mRNA
measurement_notes: SRB1 mRNA levels in C57BL/6 mice after TTC39B inhibition
Type: in vivo, mouse
experimental_conditions: 50 mg/kg/week, 6 weeks
Oligonucleotides are written 5' to 3', each unit as a sugar letter and its base; * is a phosphorothioate linkage, no mark a phosphodiester; rarer units and linkages stand in square brackets, end groups in braces. Plain capitals give the bases only. e = 2'-O-(2-methoxyethyl) (MOE); [5mC] = 5-methylcytosine; d = 2'-deoxy (DNA)
Readings of srb1 mRNA levels (effect of TTC39B inhibition) for the listed sequences
Give the value as a plain number.

biopolymer_sequence	measured_value
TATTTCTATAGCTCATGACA (antisense eT*eA*eT*eT*eT*d[5mC]*dT*dA*dT*dA*dG*d[5mC]*dT*d[5mC]*dA*eT*eG*eA*e[5mC]*eA) [ISIS 447144]	0
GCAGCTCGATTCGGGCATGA (antisense eG*e[5mC]*eA*eG*e[5mC]*dT*d[5mC]*dG*dA*dT*dT*d[5mC]*dG*dG*dG*e[5mC]*eA*eT*eG*eA) [ISIS 447118]	0
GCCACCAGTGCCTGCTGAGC (antisense eG*e[5mC]*e[5mC]*eA*e[5mC]*d[5mC]*dA*dG*dT*dG*d[5mC]*d[5mC]*dT*dG*d[5mC]*eT*eG*eA*eG*e[5mC]) [ISIS 447143]	0

QUERY: For the sequence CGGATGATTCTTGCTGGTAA (antisense e[5mC]*eG*eG*eA*eT*dG*dA*dT*dT*d[5mC]*dT*dT*dG*d[5mC]*dT*eG*eG*eT*eA*eA) [ISIS 447114] , what srb1 mRNA levels (effect of TTC39B inhibition) is on record?
RESULT: −12
